tested on: MS2 coat protein; experiment: apparent KD of MS2 coat protein; higher = weaker reporter binding; conditions: Eterna round: R107; input ligand: arginine 13.2 mM

residues: GCUGGGUGCGCAAGGACCUGGCGUUGCGAUACCAGCACGGUAACGUGCCCUUGGCAGCGCACAUGAGGAUCACCCAUGUGGUGCG [#1 Exclusion - Theophylline A Attempt #21 (HarryS)]
target: MS2 coat protein
apparent KD of MS2 coat protein (nM): 18.7

residues: ACAUGAGGAUCACCCAUGUGUGUAAGUCCUCGAGGACCGGUACGGCCGCCACUCGAACGAGUGAAGCCUGAUACUAAGUAUCAGG [SS Trp A s5]
target: MS2 coat protein
apparent KD of MS2 coat protein (nM): 99.6

residues: AUACAUGAGGAUCACCCAUGUCAUACAGAAGGAGCGUCACAUAAGACAGGUAGGUCGCUGAUAAAUGGAUUAUAGUUUAUGAUUA [JR_SSArginiA_Sub016]
target: MS2 coat protein
apparent KD of MS2 coat protein (nM): 17.5

residues: UAACAUGAGGCGGCCGCCACUCAACAUGAGGAUCACCCAUGUAUGUGUAAACAUGAGGAUCACCCGAGGACCGGGCCCUUGUAAU [Same State Tryptophan B 4]
target: MS2 coat protein
apparent KD of MS2 coat protein (nM): 25.2

residues: GUAAAUGUGACGGAUACCAGCGUGUUGUAGAACAUGAGGAUCACCCAUGUAGUGAUCAUGCGCCCUUGGCAGCUGGUAUGUUUGU [7.aB]
target: MS2 coat protein
apparent KD of MS2 coat protein (nM): 90.7

residues: AGAACUUUGGUGGAUACCAGCUUCUGGCCAUCCUUCAAAUACAUGAGGAUCACCCAUGUUAGCCCUUGGCAGCCAACAUAGACUG [theeternabot_exclusion_MS2_Theo_B_44]
target: MS2 coat protein
apparent KD of MS2 coat protein (nM): 21.7

residues: UAAUAAGUACCGGUCCUCAGAUCCUCAUGUCGAGGACCGGUACGGCCGCCACUCGAAACAUGAGGAUCACCCAUGUAAUAAUAAU [#06 Exclusion Tryptophan A]
target: MS2 coat protein
apparent KD of MS2 coat protein (nM): 24.5

residues: GGAGCUACGUCGGCCGCCACUAGCGGUAAUUACGUGUACAUGAGGAUCACCCAUGUAAUAUGGACUAGGACCGGGACGUAGCUCC [Salmon]
target: MS2 coat protein
apparent KD of MS2 coat protein (nM): 10.6

residues: UUUUUCGCGGGUGAUACCAGCAAAGUUGUACUGGUCUGGUACAUGAGGAUCACCCAUGUUUGCCCUUGGCAGCGCUCGGGAGAAG [#22 Exclusion-TheophyllineB]
target: MS2 coat protein
apparent KD of MS2 coat protein (nM): 33.2

residues: AGUAUCAGUGGAAGGAGCGUCGCGACUGCCACAUGAGGAUCACCCAUGUCGCCUUGAGCGCGACAGGUAGGUCGCCACGGUAGGC [SS-ArgB2]
target: MS2 coat protein
apparent KD of MS2 coat protein (nM): 29.1

###

test system: MS2 coat protein; assay: apparent KD of MS2 coat protein; designed switch direction (-1 OFF switch, 1 ON switch): -1; higher = weaker reporter binding; conditions: Eterna round: R95; input ligand: FMN 200 uM
Lab note: compare apparent KD of MS2 coat protein against 50 nM. Equal or greater, write satisfied. Smaller, write not satisfied.

residues: UUAUACGCUGAGGAUAUCUUCACUAAAGUGUGAAGAGAAGGCGGUACAUGAGGAUCACCCAUGUCUAUGGGCAG [Ex-6 Malc#18] (puzzle: Exclusion 6)
label: satisfied

residues: GAGAAAUUAUAGGAUAUCGUAAGGAUAAUUUAACGAGAAGGAUGAACAUGAGGAUCACCCAUGUGGUAUCAUGG [JL-ex6-3.12] (puzzle: Exclusion 6)
label: satisfied

residues: GAUAGAGCAGGAUAUUCAAUAUAUCACAUGAGGAUCACCCAUGUCCAGCGAAAGCUGGAGGGAGAAGGGCUCUAUC [Mat - Exclusion 5 - Eli mod - D99] (puzzle: Exclusion 5)
label: satisfied

residues: AGUACUAACGCGAAAGUGUUAGUACAAUAAGCUUGUGAAACAUGAGGAUCACCCAUGUCCUCAUAAGCUCGUCUUAU [salish99_TOv2_r3_023] (puzzle: Sensor v3, turn-off variant 2)
label: not satisfied

residues: GUGUAGUAAGGAUAUAGAAAGAGGGAGUAAGAUAGAGAGUUCUAGAAGGUACAUGAGGAUCACCCAUGUUGGAG [JR_Exclu4_Sub082] (puzzle: Exclusion 4)
label: not satisfied

residues: GAUUAUGCGAGCUUUAGGGACAUGAGGAUCACCCAUGUUCGUCUUAUUAGUCUGAAUACACUGACAUACCUAAAUCU [JMF 55] (puzzle: Sensor v3, turn-off variant 1)
label: not satisfied

residues: CUUCACCCACUAGAGCUCACCCACAAACCUACUCUAGUGACAUGAGGAUCACCCAUGUUUUUUGCCCGUCUUAUCUU [Qugeenerce] (puzzle: Sensor v3, turn-off variant 2)
label: not satisfied

residues: ACCUUACAUGAGGAUCACCCAUGUCAGGAUAUCUCGGGCGGCUGAGGACCAGCCACCCAGAGAAGGGACGAGGA [Qumaraanan] (puzzle: Exclusion 1)
label: not satisfied

residues: UUUAAUUUUUUUUUUUUACAAGCUUUUUGCUCGUCUUAUACAUGAGGAUCACCCAUGUGAGUGGAAGAUAAAUUAUC [JMF 11] (puzzle: Sensor v3, turn-off variant 2)
label: not satisfied

residues: AGUUACUACAAGCUUUGGGACAUGAGGAUCACCCAUGUUCGUCUUAUUGUAGUAGGUACGCUGACGUACCUACUACU [Mat - Sensor v3 - turn-off var 1 - JL Mod - D6] (puzzle: Sensor v3, turn-off variant 1)
label: not satisfied

###

tested on: MS2 coat protein; experiment: apparent KD of MS2 coat protein; designed switch direction (-1 OFF switch, 1 ON switch): 1; higher = weaker reporter binding; conditions: Eterna round: R95; input ligand: microRNA oligo, concentration not stated

residues: GAGGAUGAUUUACAGGAUAUAUAGAAGAUGACAUGAGGAUCACCCAUGUAAGAGAAAGGAGGGAGAUAGAAGGGUAAGGGAUGUG [JR_SS2_Sub40] (puzzle: Same State 2)
apparent KD of MS2 coat protein / nM: 24.5
//
residues: AUAAGUUCGAUGCUCGUCUCUCCGUACAAACAUGAGGAUCACCCAUGUGAUCGGGAAGUAGCCCAAUCAGUAUGGCC [Oranlaen] (puzzle: Sensor for hsa-mir-208a)
apparent KD of MS2 coat protein / nM: 30
//
residues: UAAAUACAUGAGGAUCACCCAUGUCAAAAGACAUGAGGAUAUGUACAGACUUCGGUCUGUACAGAAGGCAUGAAAA [salish99_ss1_r3_095] (puzzle: Same State 1)
apparent KD of MS2 coat protein / nM: 708
//
residues: CAGUGCUGUCGAGAGGAUAUGCGGUGAUGGACAUGAGGAUCACCCAUGUUAGCGACAGCGUCACGGCAGAAGGCUCUACCCACUG [Soteed Omei mod 46] (puzzle: Same State 2)
apparent KD of MS2 coat protein / nM: 15.3
//
residues: UAGUACAUGCUUUUUGUCCGUCUUAGAUAACAUGAGGAUCACCCAUGUAAGGUGAAAGUUAUAUAGUUUAGGAAUAU [JR_SHM208A_Sub057] (puzzle: Sensor for hsa-mir-208a)
apparent KD of MS2 coat protein / nM: 323
//
residues: AGGUAACAUGAGGAUCACCCAUGUAAGGUGAACGUAGGAUAUCGAGGAGGUAGGGUAGGCCGAGAAGGACGAGGAG [JR_SS1_Sub093] (puzzle: Same State 1)
apparent KD of MS2 coat protein / nM: 221
//
residues: UUAUAACAUGAGGAUCACCCAUGUCAUCUAAGUCGAGGAUAUGGGAAUUAAUUAAUUAAACCAGAAGGCGAAAAUU [Mat - Same State 1 - D91] (puzzle: Same State 1)
apparent KD of MS2 coat protein / nM: 149
//
residues: GCGGCGGCACGGCAGGAUAUGAUAAAACCUACAUGAGGAUCACCCAUGUCGGCGGGUUGCAAAAUUCAGAAGGGCCCUGUAGGCC [Leorzaonis] (puzzle: Same State 2)
apparent KD of MS2 coat protein / nM: 34.6
//
residues: AUUAAACAUGAGGAUCACCCAUGUCAACAAAGUCGAGGAUAUGGGCUAAUAAAAUAAGAACCAGAAGGCGAAUAAU [salish99_ss1_r3_062] (puzzle: Same State 1)
apparent KD of MS2 coat protein / nM: 185
//
residues: ACAAGCUUUUUAGGAGAGAAAGGUGGGAAACAUGAGGAUCACCCAUGUAUGGUAGUGAAUAGUGGAACUCGUCUUAU [JR_SHM208A_Sub081] (puzzle: Sensor for hsa-mir-208a)
apparent KD of MS2 coat protein / nM: 104
//
residues: UUCUCUUUUUAGAGACAAGCUUUUUGAUCACAUGAGGAUCACCCAUGUCUCGUCUUAUGAUUUACUUCGUUAUUUCU [BA Sensor hsa-mir-208a - 2 - 6] (puzzle: Sensor for hsa-mir-208a)
apparent KD of MS2 coat protein / nM: 15.6
//
residues: UGGAUCUAGGCUUGCCUGGGUCCUUGUUGACAUGAGGAUCACCCAUGUGUUUUUUUUUUGCUUUUUGUUUGUCAACA [JL A Humble Attempt mod 1] (puzzle: Sensor for hsa-mir-208a)
apparent KD of MS2 coat protein / nM: 13.6
